Sourced from ChEMBL document CHEMBL3885861

species: Rattus norvegicus; assay: Open TG-GATES - Regimen: Single; type: toxicity, organism-based, Sprague-Dawley; parameters: regimen Single, gender Male, age 6 weeks; conditions: in vivo, po, 100 mg/kg, 24 h, tissue Kidney, route gavage, dose level Low

{"compound": "CN(C)CCC=C1c2ccccc2COc2ccccc21 [DOXEPIN]", "KIDNEY_TOTAL": "1.8 g"}
{"compound": "CCC1(c2ccccc2)C(=O)NC(=O)NC1=O [PHENOBARBITAL]", "KIDNEY_TOTAL": "2.3 g"}
{"compound": "O=NN1CCOCC1 [N-NITROSOMORPHOLINE]", "KIDNEY_TOTAL": "2 g"}
{"compound": "CN(C)C(=N)N=C(N)N [METFORMIN]", "KIDNEY_TOTAL": "1.8 g"}

* * *

Entries and their MCH values follow.
organism: Rattus norvegicus; assay: Open TG-GATES - Regimen: Daily Repeat; assay type: toxicity, organism-based, Sprague-Dawley; parameters: regimen Daily Repeat, gender Male, age 6 weeks; conditions: in vivo, po, 0 mg/kg, […], tissue Blood, route gavage, dose level Control, time 7 day

{"molecule": "CC[C@H]1[C@@H]2C[C@H]3[C@@H]4N(C)c5ccccc5[C@]45C[C@@H]([C@@H]2[C@H]5O)N3[C@@H]1O", "MCH, pg": 20.6}
{"molecule": "CCCCc1oc2ccccc2c1C(=O)c1cc(I)c(OCCN(CC)CC)c(I)c1", "MCH, pg": 21.2}
{"molecule": "CCc1oc2ccccc2c1C(=O)c1cc(Br)c(O)c(Br)c1", "MCH, pg": 21.4}
{"molecule": "CC1=C(CC(=O)O)c2cc(F)ccc2/C1=C\\c1ccc([S+](C)[O-])cc1 (centres undefined)", "MCH, pg": 21.3}
{"molecule": "O=NN(CCCl)C(=O)NC1CCCCC1", "MCH, pg": 21.8}
{"molecule": "OCCOCCN1CCN(C(c2ccccc2)c2ccc(Cl)cc2)CC1 (centres undefined) [HYDROXYZINE]", "MCH, pg": 21.3}
{"molecule": "ClC(Cl)(Cl)Cl [CARBON TETRACHLORIDE]", "MCH, pg": 21.6}
{"molecule": "CN(C)CCC=C1c2ccccc2COc2ccccc21 [DOXEPIN]", "MCH, pg": 21.1}
{"molecule": "CCC1(c2ccccc2)C(=O)NC(=O)NC1=O", "MCH, pg": 21.9}

* * *

species: Rattus norvegicus; test: Open TG-GATES - Regimen: Daily Repeat; type: toxicity, organism-based, Sprague-Dawley; parameters: regimen Daily Repeat, gender Male, age 6 weeks; details: in vivo, po, 0 mg/kg, […], tissue Plasma, route gavage, dose level Control, time 28 day

{"compound": "CC1=C(CC(=O)O)c2cc(F)ccc2/C1=C\\c1ccc([S+](C)[O-])cc1 (stereo unspecified)", "ALP": "1152 IU/L"}
{"compound": "O=NN(CCCl)C(=O)NC1CCCCC1", "ALP": "681.8 IU/L"}
{"compound": "CCCCc1oc2ccccc2c1C(=O)c1cc(I)c(OCCN(CC)CC)c(I)c1", "ALP": "614.8 IU/L"}
{"compound": "CN(C)CCC=C1c2ccccc2COc2ccccc21 [DOXEPIN]", "ALP": "1293.8 IU/L"}
{"compound": "OCCOCCN1CCN(C(c2ccccc2)c2ccc(Cl)cc2)CC1 (stereo unspecified) [HYDROXYZINE]", "ALP": "992.6 IU/L"}
{"compound": "CC[C@H]1[C@@H]2C[C@H]3[C@@H]4N(C)c5ccccc5[C@]45C[C@@H]([C@@H]2[C@H]5O)N3[C@@H]1O", "ALP": "557 IU/L"}
{"compound": "CC(C)N(CCC(C(N)=O)(c1ccccc1)c1ccccn1)C(C)C (stereo unspecified) [DISOPYRAMIDE]", "ALP": "1292.8 IU/L"}
{"compound": "CCc1oc2ccccc2c1C(=O)c1cc(Br)c(O)c(Br)c1", "ALP": "607.6 IU/L"}
{"compound": "CN(C)C(=N)N=C(N)N", "ALP": "1085 IU/L"}
{"compound": "CCC1(c2ccccc2)C(=O)NC(=O)NC1=O", "ALP": "596.8 IU/L"}
{"compound": "ClC(Cl)(Cl)Cl [CARBON TETRACHLORIDE]", "ALP": "495 IU/L"}
